Would you kindly list pIC50 for each of these compounds?
# Experimental target: full-length human PKCι (Homo sapiens, UniProt P41743)
# Construct: Recombinant, full-length human PKCι expressed in Sf21 insect cells is also commercially available
# Sequence (P41743 1-596): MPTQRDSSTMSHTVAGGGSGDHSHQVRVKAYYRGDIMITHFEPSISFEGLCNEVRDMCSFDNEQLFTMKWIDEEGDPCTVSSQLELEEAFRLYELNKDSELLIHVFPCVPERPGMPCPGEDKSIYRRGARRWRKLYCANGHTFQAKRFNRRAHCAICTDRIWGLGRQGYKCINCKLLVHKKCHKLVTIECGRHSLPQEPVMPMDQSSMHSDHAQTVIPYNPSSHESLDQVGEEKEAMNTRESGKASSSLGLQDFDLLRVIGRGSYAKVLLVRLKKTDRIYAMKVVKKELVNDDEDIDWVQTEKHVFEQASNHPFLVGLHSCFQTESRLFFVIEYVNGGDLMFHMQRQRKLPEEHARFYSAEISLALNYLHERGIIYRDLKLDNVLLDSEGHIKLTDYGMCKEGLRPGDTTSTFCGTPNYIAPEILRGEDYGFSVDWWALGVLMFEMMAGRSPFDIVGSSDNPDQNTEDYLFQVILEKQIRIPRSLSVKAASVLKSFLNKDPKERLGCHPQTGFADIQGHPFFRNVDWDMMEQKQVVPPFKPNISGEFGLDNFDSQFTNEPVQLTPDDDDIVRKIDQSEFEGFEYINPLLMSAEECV
# Procedure details: PKCι IC50 IMAP assay, full-length PKCι at 150 μM ATP
# Cond: read-out: IC50 in IMAP assay against full length PKCi at 150 μM ATP
pIC50: −log10 of the molar value. Where a name gives a salt, the structure may show the parent alone.

[[record]]
compound = "Fc1ccc(-c2cc3c(-c4nc(N5CCNCC5)c5c(C6CC6)cncc5n4)ccnc3[nH]2)cc1"
experimental_target = "full-length human PKCι (Homo sapiens, UniProt P41743)"
test_readout = "pIC50"
obs_value = "> 7.00"

[[record]]
compound = "CNc1ccc(Nc2nc(-c3ccnc(Nc4ncc(F)cc4F)c3)nc3cncc(C4CC4)c23)cc1"
experimental_target = "full-length human PKCι (Homo sapiens, UniProt P41743)"
test_readout = "pIC50"
obs_value = "4.40 to 5.00"

[[record]]
compound = "COc1cncc2nc(-c3ccnc(Nc4c(F)cccc4F)c3)nc(N3CCNCC3)c12"
experimental_target = "full-length human PKCι (Homo sapiens, UniProt P41743)"
test_readout = "pIC50"
obs_value = "> 7.00"

[[record]]
compound = "COc1cncc2nc(-c3ccncc3)nc(N3CCN[C@@H](Cc4ccccc4)C3)c12"
experimental_target = "full-length human PKCι (Homo sapiens, UniProt P41743)"
test_readout = "pIC50"
obs_value = "5.00 to 6.00"

[[record]]
compound = "COc1cncc2nc(-c3ccnc(Nc4ccccc4)c3)nc(N[C@@H]3CCN(CC(N)=O)C3)c12"
experimental_target = "full-length human PKCι (Homo sapiens, UniProt P41743)"
test_readout = "pIC50"
obs_value = "5.00 to 6.00"

[[record]]
compound = "c1ccc2c(Nc3cc(-c4nc(N5CCNCC5)c5c(C6CC6)cncc5n4)ccn3)cccc2c1"
experimental_target = "full-length human PKCι (Homo sapiens, UniProt P41743)"
test_readout = "pIC50"
obs_value = "> 7.00"


Below are 7 compounds. Give each one its pIC50.
1. Fc1nc(C2CC2)ccc1Nc1cc(-c2nc(N3CCNCC3)c3c(C4CC4)cncc3n2)ccn1 [Example 725, bis-trifluoroacetic acid salt]
2. CC1(C)CNCCC1Nc1nc(-c2ccnc(Nc3ncc(F)cc3F)c2)nc2cncc(C3CC3)c12 (stereo not shown)
3. N[C@H](CNc1nc(-c2ccncc2)nc2c(-c3ccn[nH]3)nccc12)Cc1ccccc1
4. N#Cc1ccc(Nc2cc(-c3nc(N4CCNCC4)c4c(Cl)cncc4n3)ccn2)cn1
5. CC(=O)N1CCC(N(C)c2nc(-c3ccnc(Nc4c(F)cccc4F)c3)nc3cncc(C4CC4)c23)CC1
6. N[C@H](CNc1nc(-c2ccncc2)nc2c(-c3cncnc3)nccc12)Cc1ccccc1
7. c1ccc2c(c1)CC[C@@H]2Nc1cc(-c2nc(N3CCNCC3)c3c(C4CC4)cncc3n2)ccn1

1. > 7.00
2. > 7.00
3. > 7.00
4. 4.40 to 5.00
5. 6.00 to 7.00
6. 6.00 to 7.00
7. > 7.00

---

Would you kindly list pIC50 for each of these compounds?
# Experimental target: full-length human PKCι (Homo sapiens)
# Construct: Recombinant, full-length human PKCι expressed in Sf21 insect cells is also commercially available
# Procedure details: PKCι IC50 IMAP assay, full-length PKCι at 150 μM ATP
# Cond: read-out: IC50 in IMAP assay against full length PKCi at 150 μM ATP
pIC50: −log10 of the molar value.

Here's what some known entries look like.
[[record]]
smiles_notation = "COc1cncc2nc(-c3ccnc(Nc4ccc(Cn5ccnc5)cc4)c3)nc(N[C@@H]3CCNC3)c12"
obs_value = "5.00 to 6.00"

[[record]]
smiles_notation = "COc1cncc2nc(-c3ccnc(NC(=O)Cc4ccc(Cl)cc4)c3)nc(N3CCNCC3)c12"
obs_value = "> 7.00"

[[record]]
smiles_notation = "CC(C)NC(=O)C1CCN(c2nc(-c3ccnc(NC4CCCCC4)c3)nc3cncc(C4CC4)c23)CC1"
obs_value = "5.00 to 6.00"


Please look up its pIC50: Fc1ccccc1C1(c2cc3c(-c4nc(N5CCNCC5)c5c(C6CC6)cncc5n4)ccnc3[nH]2)CC1
> 7.00

---

# Experimental target: full-length human PKCι (Homo sapiens, UniProt P41743)
# Construct: Recombinant, full-length human PKCι expressed in Sf21 insect cells is also commercially available
# Sequence (P41743 1-596): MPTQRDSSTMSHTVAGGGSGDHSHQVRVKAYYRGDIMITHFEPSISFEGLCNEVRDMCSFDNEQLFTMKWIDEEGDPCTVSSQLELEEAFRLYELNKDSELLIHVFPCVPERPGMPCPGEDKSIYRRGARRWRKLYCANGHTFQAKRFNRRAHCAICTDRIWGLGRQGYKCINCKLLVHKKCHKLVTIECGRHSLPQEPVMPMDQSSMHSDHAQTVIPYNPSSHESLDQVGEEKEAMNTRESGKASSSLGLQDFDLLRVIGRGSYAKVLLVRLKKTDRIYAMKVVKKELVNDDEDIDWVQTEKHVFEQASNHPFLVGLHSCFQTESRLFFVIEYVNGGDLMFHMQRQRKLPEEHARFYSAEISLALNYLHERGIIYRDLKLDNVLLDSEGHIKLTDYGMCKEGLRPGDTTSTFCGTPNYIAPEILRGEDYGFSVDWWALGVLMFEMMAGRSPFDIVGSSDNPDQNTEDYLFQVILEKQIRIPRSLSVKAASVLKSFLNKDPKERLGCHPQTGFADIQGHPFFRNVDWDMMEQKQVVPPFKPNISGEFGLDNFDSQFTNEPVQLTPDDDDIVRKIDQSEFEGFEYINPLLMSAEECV
# Procedure details: PKCι IC50 IMAP assay, full-length PKCι at 150 μM ATP
# Cond: read-out: IC50 in IMAP assay against full length PKCi at 150 μM ATP
Would you kindly list IC50 for each of these compounds?

[[record]]
compound = "N#Cc1ccnc(Nc2cc(-c3nc(N4CCN[C@@H](CF)C4)c4c(C5CC5)cncc4n3)ccn2)c1 [Example 530]"
experimental_target = "full-length human PKCι (Homo sapiens, UniProt P41743)"
test_readout = "IC50"
obs_value = "< 100 nM"


Below are 3 compounds. Give each one its IC50.
1. OC1CCN(c2nc(-c3ccnc(Nc4cccc(N5CCOCC5)c4)c3)nc3cncc(C4CC4)c23)CC1 [Example 834]
2. Fc1ccc(F)c(Nc2cc(-c3nc(N4CCNCC4)c4c(C5CCC5)cncc4n3)ccn2)n1 [Example 799]
3. NC(=O)c1cccc(Nc2cc(-c3nc(N[C@@H]4CCNC4)c4ccncc4n3)ccn2)c1 [Example 308]

1. < 100 nM
2. < 100 nM
3. 100 to 1000 nM

---

Would you kindly list pIC50 for each of these compounds?
# Experimental target: full-length human PKCι (Homo sapiens, UniProt P41743)
# Construct: Recombinant, full-length human PKCι expressed in Sf21 insect cells is also commercially available
# Procedure details: PKCι IC50 IMAP assay, full-length PKCι at 150 μM ATP
# Cond: read-out: IC50 in IMAP assay against full length PKCi at 150 μM ATP
pIC50: −log10 of the molar value.

Here's what some known entries look like.
[[record]]
compound = "c1ncc2nc(N3CCOCC3)nc(N3CCNCC3)c2c1C1CC1"
obs_value = "> 7.00"

[[record]]
compound = "O=CN[C@H](CNc1nc(-c2ccncc2)nc2cnccc12)Cc1ccccc1"
obs_value = "5.00 to 6.00"

[[record]]
compound = "OCCN1CCN(c2nc(-c3ccnc(Nc4ccccc4)c3)nc3cncc(C4CC4)c23)CC1"
obs_value = "6.00 to 7.00"

[[record]]
compound = "COc1cncc2nc(-c3ccnc(Nc4c(F)ccc(F)c4F)c3)nc(N3CCNCC3)c12"
obs_value = "> 7.00"

[[record]]
compound = "Cc1cc2c(-c3nc(N4CCNCC4)c4c(C5CC5)cnc(Cl)c4n3)ccnc2[nH]1"
obs_value = "> 7.00"


Below are 7 compounds. Give each one its pIC50.
1. CN[C@H](CNc1nc(-c2ccncc2)nc2cnccc12)Cc1ccccc1
2. Cc1ccnc(Nc2cc(-c3nc(N4CCNCC4)c4c(Cl)cncc4n3)ccn2)c1
3. c1ccc(Nc2cc(-c3nc(N4CC5CNCC5C4)c4c(C5CC5)cncc4n3)ccn2)cc1 (stereo not shown)
4. c1cc(-c2nc(N3CCNCC3)c3c(C4CCC4)cncc3n2)c2cc([C@H]3C[C@H]4CC[C@@H]3C4)[nH]c2n1 (racemic)
5. c1cc(-c2nc(N3CCNCC3)c3c(C4CC4)cncc3n2)cc(N[C@@H]2C[C@H]3CC[C@@H]2C3)n1 (racemic) [Example 695]
6. CC(=O)Nc1cc(-c2nc(N3CCN[C@H](C(F)(F)F)C3)c3c(C4CC4)cncc3n2)ccn1
7. CC(C)(C)c1cc2c(-c3nc(N4CCNCC4)c4c(C5CC5)cnc(C5CC5)c4n3)ccnc2[nH]1

6.00 to 7.00
> 7.00
> 7.00
> 7.00
> 7.00
6.00 to 7.00
> 7.00
